Tested on: Saccharomyces cerevisiae
Experiment: protein stability index of tFT-peptide fusion (C-terminal peptide) (PSI (0-1 scale)); higher = more stable (slower turnover);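 note: PSI is a weighted mean of sequencing reads over stability bins, variants kept only with over 10 reads, mCherry proximal and sfGFP distal, peptide attached via GGGS linker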
Conditions: genetic background: wild type; temperature: 37 C
Outcome measure: protein stability index
Numbers only.

// below: answered sequences
{"Macromolecule sequence": "YFNGLLPLVLVF", "protein stability index": 0.0517}
{"Macromolecule sequence": "VKIEVICRVSLI", "protein stability index": 0.404}
{"Macromolecule sequence": "RIWRLLIIIIKK", "protein stability index": 0.456}
{"Macromolecule sequence": "CSSLIMIITCVN", "protein stability index": 0.122}
{"Macromolecule sequence": "GFSPLFVLVFGV", "protein stability index": 0.489}

Could you report protein stability index for every entry in the following list?
1. LSFLCFSTVLHC
2. GFLVPSSPRCHQ

Response:
[0.543, 0.691]

For every record below, what is its protein stability index?
1. VRTFVFLVGYCE
2. SCFCFRVLLCSF
3. PPPNSSTSPPCS
4. SWLAQCVVISLL
5. IVCYFFAFSFMW

Response:
1: 0.557; 2: 0.364; 3: 0.677; 4: 0.56; 5: 0.425

For each of the sequences below, state protein stability index.
1. KHKIIGKYQRQI
2. FYGVRFLVCVSA
3. IWIHSVGVECTS

Response:
[0.576, 0.096, 0.519]

====

System: Saccharomyces cerevisiae
Test: protein stability index of tFT-peptide fusion (C-terminal peptide) (PSI (0-1 scale)); higher = more stable (slower turnover)
Settings: genetic background: das1 deletion; temperature: 37 C
Decision: protein stability index >= 0.6 yields satisfied, all other cases yield not satisfied.

Example results:
{"Macromolecule sequence": "PPGLLPPCLLVV", "Classification": "not satisfied"}
{"Macromolecule sequence": "FAVHHLRYILLV", "Classification": "not satisfied"}
{"Macromolecule sequence": "FGLRVHPIVFIF", "Classification": "not satisfied"}

Prompt: Reported protein stability index at or above 0.6? VFYWVGVLCGWG
Response: not satisfied

Prompt: // inclusive: protein stability index at least 0.6? input: LLSLLLDPLLCL
Response: satisfied

====

Test system: Saccharomyces cerevisiae
Test: protein stability index of tFT-peptide fusion (C-terminal peptide) (PSI (0-1 scale)); higher = more stable (slower turnover)
Details: genetic background: wild type; temperature: 30 C
Outcome measure: protein stability index
Give bare numbers.

{"Macromolecule sequence": "VFYWVGVLCGWG", "Reported": 0.375}

Need protein stability index for each of these sequences.
1. AAGRSNTEPGDH
2. ATGGGSFKRRVS
3. PPASLRRPRSYL
4. RAVSGSLSFLLR
5. PPHIIPHPKAHT
6. DSFAIFFDWPAC

Response:
0.69
0.53
0.748
0.721
0.687
0.695

Quick one: give me protein stability index for each item below, same order please.
1. PPAPSPPQPSPL
2. WGFLSVVCLSGV
3. RPPSPILPSSSP
4. ASSHSFPDAPSL
5. EIKKKKSQTKKT
6. SGVDVPCSCHYL

Response:
1. 0.686
2. 0.458
3. 0.714
4. 0.73
5. 0.67
6. 0.732

====

System: Saccharomyces cerevisiae
Assay: protein stability index of tFT-peptide fusion (C-terminal peptide) (PSI (0-1 scale)); higher = more stable (slower turnover)
Details: genetic background: cdc53-1; temperature: 37 C
Threshold check on protein stability index: at or above 0.5 gives Yes, strictly below gives No.

Solved entries (count: 5):
{"Macromolecule sequence": "CVPGPRWWYHSA", "Classification": "Yes"}
{"Macromolecule sequence": "KERNKISQRKLT", "Classification": "Yes"}
{"Macromolecule sequence": "FCHFSSLVSVSL", "Classification": "Yes"}
{"Macromolecule sequence": "GYRYMWLWRLSA", "Classification": "Yes"}
{"Macromolecule sequence": "KIIKERIRRIKI", "Classification": "Yes"}

Prompt: Hello, I need to know if GLSGFLLLIVLY has measured protein stability index not below 0.5. Thanks!
Response: No

Prompt: Check the entry TSFCIFFVRFVI : does protein stability index equal or exceed 0.5?
Response: No

Prompt: Is reported protein stability index greater than or equal to 0.5 here: KLKTSHILIKQT
Response: Yes

Prompt: I'd appreciate it if you could say whether VRVFSLVVCWVV has protein stability index at least equal to 0.5.
Response: No

Prompt: Determine whether this sequence has protein stability index no lower than 0.5: LLRLCGFPLGVG
Response: Yes

Prompt: Reported protein stability index at or above 0.5? RQINEKKKLYMI
Response: Yes

Prompt: Is protein stability index for LFWWCMVFISLI at or above 0.5?
Response: No

Prompt: // inclusive: protein stability index at least 0.5? input: FRHFPLLLSFVR
Response: No

Prompt: # bool: protein stability index of SPWSIHLILLQV >= 0.5
Response: No

Prompt: Is the recorded value of protein stability index equal to or greater than 0.5 for this sequence? ILFRRRLCCFLK
Response: No
